Tested on: rodent lifetime carcinogenesis bioassay, tumor incidence TD50
Run Description: carcinogenic potency in animals, long-term in vivo studies, CPDB compilation (AID 1745844)
Test Settings: mouse; strain B6C3F1; females; inhaled; site: liver; lesion: hepatocellular carcinoma; dosed 105 weeks; study length 105 weeks
Parameter: TD50 (mg/kg/day)

[[record]]
compound_structure = "CCCCCC"
measurement_target = "rodent lifetime carcinogenesis bioassay, tumor incidence TD50"
parameter = "TD50"
result = 84800


----------
Test system: rodent lifetime carcinogenesis bioassay, tumor incidence TD50
Run Description: carcinogenic potency in animals, long-term in vivo studies, CPDB compilation (AID 1745844)
Test Settings: mouse; strain B6C3F1; males; by gavage; site: liver; lesion: hepatocellular adenoma; dosed 104 weeks; study length 105 weeks
Parameter: TD50 (mg/kg/day)

[[record]]
compound_structure = "c1ccoc1"
parameter = "TD50"
result = 4.02

